Protocol text: Cytotoxicity against human MT4 cells assessed as reduction in cell viability after 5 days by MTT assay
Type: cell-based
Test settings: time 5 day
Consider the following molecules; for each one, report its CC50 at 120 h.

I would be grateful if you could share the reported CC50 at 120 h for Cc1cc(C#N)cc(C)c1Oc1nc(Nc2ccc(C#N)cc2)ncc1-c1cccc2ccccc12 .
> 267 µM

I would be grateful if you could share the reported CC50 at 120 h for Cc1cc(C#N)cc(C)c1Oc1nc(Nc2ccc(C#N)cc2)nc(N)c1Br .
> 4.59 µM

I would be grateful if you could share the reported CC50 at 120 h for Cc1cc(C#N)cc(C)c1Oc1nc(Nc2ccc(C#N)cc2)ncc1-c1cncnc1 .
> 298 µM

I would be grateful if you could share the reported CC50 at 120 h for Cc1cc(C#N)cc(C)c1Oc1nc(Nc2ccc(C#N)cc2)ncc1-c1ccc(-c2ccccc2)cc1 .
> 253 µM

I would be grateful if you could share the reported CC50 at 120 h for Cc1cn([C@H]2C[C@H](N=[N+]=[N-])[C@@H](CO)O2)c(=O)[nH]c1=O .
> 7.48 µM

I would be grateful if you could share the reported CC50 at 120 h for COc1ccc(-c2cnc(Nc3ccc(C#N)cc3)nc2Oc2c(C)cc(C#N)cc2C)cc1 .
> 279 µM

I would be grateful if you could share the reported CC50 at 120 h for Cc1cc(C#N)cc(C)c1Oc1nc(Nc2ccc(C#N)cc2)ncc1-c1ccc(Cl)cc1 .
72.6 µM

I would be grateful if you could share the reported CC50 at 120 h for Cc1cc(C#N)cc(C)c1Oc1nc(Nc2ccc(C#N)cc2)ncc1-c1ccccc1 .
31.8 µM

I would be grateful if you could share the reported CC50 at 120 h for O=C1Nc2ccc(Cl)cc2[C@@](C#CC2CC2)(C(F)(F)F)O1 .
> 6.34 µM

I would be grateful if you could share the reported CC50 at 120 h for Cc1cc(C#N)cc(C)c1Oc1nc(Nc2ccc(C#N)cc2)ncc1-c1ccc2ccccc2c1 .
8.46 µM

I would be grateful if you could share the reported CC50 at 120 h for Cc1ccnc2c1NC(=O)c1cccnc1N2C1CC1 .
> 15 µM

I would be grateful if you could share the reported CC50 at 120 h for Cc1cc(C)cc(-c2cnc(Nc3ccc(C#N)cc3)nc2Oc2c(C)cc(C#N)cc2C)c1 .
39 µM

I would be grateful if you could share the reported CC50 at 120 h for Cc1cc(C#N)cc(C)c1Oc1nc(Nc2ccc(C#N)cc2)ncc1-c1ccoc1 .
4.98 µM

###

Test system: Human immunodeficiency virus 1
Protocol text: Antiviral activity against HIV-1 IIIB harboring RT L100I mutant infected in human MT4 cells assessed as protection against virus-induced cytotoxicity incubated for 5 days by MTT assay
Assay type: functional, organism-based
Test settings: Human immunodeficiency virus 1, IIIB, MT4, 120 h
Consider the following molecules; for each one, report its EC50.
Answer with a number only, understood to be in µM.

Notebook: pull reported EC50 for Human immunodeficiency virus 1, entry Cc1ccc(-c2cnc(Nc3ccc(C#N)cc3)nc2Oc2c(C)cc(C#N)cc2C)cc1
0.138

Notebook: pull reported EC50 for Human immunodeficiency virus 1, entry COc1ccc(-c2cnc(Nc3ccc(C#N)cc3)nc2Oc2c(C)cc(C#N)cc2C)cc1
0.164

Notebook: pull reported EC50 for Human immunodeficiency virus 1, entry Cc1cc(C#N)cc(C)c1Oc1nc(Nc2ccc(C#N)cc2)ncc1-c1cncnc1
0.0383

Notebook: pull reported EC50 for Human immunodeficiency virus 1, entry Cc1cc(C#N)cc(C)c1Oc1nc(Nc2ccc(C#N)cc2)ncc1-c1ccoc1
0.0191

Notebook: pull reported EC50 for Human immunodeficiency virus 1, entry Cc1cc(C#N)cc(C)c1Oc1nc(Nc2ccc(C#N)cc2)ncc1-c1ccc(F)cc1
0.159

Notebook: pull reported EC50 for Human immunodeficiency virus 1, entry Cc1ccnc2c1NC(=O)c1cccnc1N2C1CC1 [NEVIRAPINE]
0.589

Notebook: pull reported EC50 for Human immunodeficiency virus 1, entry Cc1cc(C#N)cc(C)c1Oc1nc(Nc2ccc(C#N)cc2)ncc1-c1ccncc1
0.0283
